- System: OV90
- test-details: Primary qHTS to identify gynecologic anti-cancer compounds using libraries of approved drugs and bioactive compounds (AID 1345084); also: % is scaled to controls: 0 for no effect and ±100 for the full control effect; nearly all actives have a fitted effect of over 55% in size
- study-conditions: Gynecologic cancer cell panel viability, ATPlite luminescence, 48 h; series mostly up to 57.5 µM
Results filed as inconclusive are left out. Activity calls are given as the source filed them. Calls follow the shape of the dose curve; as a rule, active = well fitted cell-killing curve with a large enough effect; inconclusive = small, poorly fitted or top-dose-only effect, or effect the other way; inactive = flat fitted curve, though single readings scatter.
result-type: activity change, negative = cytotoxicity

Worked examples follow.
compound="CCC(=O)O[C@H]1C(C)(C)[C@H]([C@@H](O)C(=O)OC)[C@]2(C)C(=O)[C@@]1(O)[C@H]1O[C@]13C1CC(=O)O[C@@H](c4ccoc4)[C@]1(C)CCC32 (stereo partly drawn)" result=inactive
compound=CC/C=C\CCO[C@@H]1O[C@H](CO[C@@H]2OC[C@H](O)[C@H](O)[C@H]2O)[C@@H](O)[C@H](O)[C@H]1O result=inactive
compound="C/C=C/C=C/C=C/C(=O)OC1C=C(C=O)C(O)(C(=O)O)C2(C)CCCC(C)(C)C12 (stereo not drawn)" result=inactive
compound=COc1cc2oc(-c3ccc(O)cc3O)cc2c(OC)c1CC=C(C)C result=inactive
compound=Cc1cccc(S(=O)(=O)N2CCC[C@@H]2CCN2CCC(C)CC2)c1 result=inactive
compound=C=CC(=O)Nc1cccc(CN2C(=O)N(c3c(Cl)c(OC)cc(OC)c3Cl)Cc3cnc(NCCCCN(CC)CC)nc32)c1 result=inactive

Record activity change, negative = cytotoxicity per entry; entries follow.
1. C=C[C@]1(C)C[C@H](O)[C@@H]2[C@H](OC(=O)[C@@H]2C)C1/C(C)=C/O[C@@H]1O[C@H](CO)[C@@H](O)[C@H](O)[C@H]1O (stereo partly drawn)
2. COc1cc(Nc2nc3ccccc3nc2NS(=O)(=O)c2ccc(NC(=O)c3ccc(OC)c(C)c3)cc2)cc(OC)c1

Found:
["inactive", "inactive"]

---

- Tested on: Tov112D
- test-details: Primary qHTS to identify gynecologic anti-cancer compounds using libraries of approved drugs and bioactive compounds (AID 1345084); also: % is scaled to controls: 0 for no effect and ±100 for the full control effect; nearly all actives have a fitted effect of over 55% in size
- study-conditions: Gynecologic cancer cell panel viability, ATPlite luminescence, 48 h; series mostly up to 57.5 µM
Inconclusive results are not listed. Activity calls are given as the source filed them. The call rests on the fitted dose curve; in most records, active means well fitted cell-killing curve with a large enough effect; inconclusive means small, poorly fitted or top-dose-only effect, or effect the other way; inactive means flat fitted curve, though single readings scatter.
result-type: activity change, negative = cytotoxicity

compound="CC1(C)CC[C@]2(C(=O)OC3OC(CO)C(O)C(O)C3O)CC[C@]3(C)C(=CCC4[C@@]5(C)CC[C@H](OC6OC(C(=O)O)C(O)C(OC7OC(CO)C(O)C(O)C7O)C6O)C(C)(C)C5CC[C@]43C)C2C1 (some centres not stated)" result="6.25% [at 11.6 µM] (inactive)"

Let us move to another entry and its activity change, negative = cytotoxicity.
Lookup: Look up and report activity change, negative = cytotoxicity, with Tov112D as system, for C[C@@H]1O[C@@H](O[C@H]2[C@H](O[C@H]3CC[C@@]4(C)C(CC[C@]5(C)C4C=C[C@]46OC[C@@]7(CCC(C)(C)C[C@H]74)[C@@H](O)C[C@]65C)[C@]3(C)CO)O[C@H](CO)[C@@H](O)[C@@H]2O[C@@H]2O[C@H](CO)[C@@H](O[C@@H]3O[C@@H](C)[C@H](O)[C@@H](O)[C@H]3O)[C@H](O)[C@H]2O)[C@H](O)[C@H](O)[C@H]1O (some centres not stated)
Found: -4.43% [at 11.6 µM] (inactive)

---

- Tested on: HEK293
- test-details: Cytotoxic Profiling of Annotated Libraries Using Quantitative High-Throughput Screening (AID 1296008); also: % is scaled to controls: 0 for no effect and ±100 for the full control effect; nearly all actives have a fitted effect of over 60% in size
- study-conditions: Five cell lines viability, CellTiter-Glo ATP luminescence, 48-72 h; hits give low values
Records with an inconclusive call do not appear.
result-type: max response (%)
Answers are plain numbers, in %.

These solved cases illustrate the format of a correct answer.
molecule=Cc1cc(C(=O)N2CCCCc3ccccc32)ccc1CNC(=O)N1CCC[C@H]1C(=O)N(C)C system=HEK293 numeric_value=-0.739
molecule="C/C=C(\\C)C(=O)OCC1OC(OC2OC(COC(=O)/C(C)=C/C)C(OC3OC(CO)C(OC(=O)/C(C)=C/C)C(OC(=O)/C(C)=C/C)C3O)C(O)C2O)C(O)C(O)C1OC1OC(CO)C(OC(=O)/C(C)=C/C)C(OC(=O)/C(C)=C/C)C1O (stereo not drawn)" system=HEK293 numeric_value=-7.34
molecule=CC[C@H](NC(=O)[C@H](CS(=O)(=O)CC1CC1)N[C@@H](c1ccc(F)cc1)C(F)(F)F)C(=O)C(=O)NC1CC1 system=HEK293 numeric_value=-20.2
molecule=O=C(Nc1ccn[nH]1)c1c(F)cccc1F system=HEK293 numeric_value=4.81
molecule=CC(C)(C)NC(=O)[C@@H](c1cccnc1)N(C(=O)c1ccco1)c1ccc(C(C)(C)C)cc1 system=HEK293 numeric_value=-16.3

For each listed entry, give its max response.
1. O=C(/C=C/c1ccc(O)cc1)N[C@@H](Cc1ccc(O)cc1)C(=O)O
2. CC1(C)CCCC2(C)C(C(=O)O)=CCC12 (stereo not drawn)
3. C#CCN(Cc1cc2c(=O)n(C)c(CN3CCN(C)CC3)nc2cc1Cl)c1ccc(C(=O)NCc2cccnc2)cc1

Found:
-7.32
-1.36
-130
